targetDesc: hNET (Homo sapiens)
Sequence (P23975 whole entry): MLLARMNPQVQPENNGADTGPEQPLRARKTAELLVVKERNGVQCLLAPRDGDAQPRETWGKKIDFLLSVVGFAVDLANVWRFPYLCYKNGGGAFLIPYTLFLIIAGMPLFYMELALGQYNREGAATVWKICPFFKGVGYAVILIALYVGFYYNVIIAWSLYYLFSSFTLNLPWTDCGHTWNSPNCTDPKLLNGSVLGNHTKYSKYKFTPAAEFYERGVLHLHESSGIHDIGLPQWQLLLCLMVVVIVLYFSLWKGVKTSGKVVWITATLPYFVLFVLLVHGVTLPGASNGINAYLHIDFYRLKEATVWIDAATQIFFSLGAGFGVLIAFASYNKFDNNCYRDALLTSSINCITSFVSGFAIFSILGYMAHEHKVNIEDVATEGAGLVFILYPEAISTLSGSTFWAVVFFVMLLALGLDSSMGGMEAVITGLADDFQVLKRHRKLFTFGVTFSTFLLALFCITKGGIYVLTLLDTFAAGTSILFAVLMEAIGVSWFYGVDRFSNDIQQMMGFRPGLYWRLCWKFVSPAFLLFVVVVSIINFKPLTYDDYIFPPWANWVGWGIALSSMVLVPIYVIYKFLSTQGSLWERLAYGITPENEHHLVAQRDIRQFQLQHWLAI
measurementProtocol: Norepinephrine (NE) uptake assay in MDCK-Net6 cells stably transfected with human hNET
conditionDetails: [3H]NE uptake, test range 1 to 10,000 nM
pEC50: −log10 of the molar value. Where a name gives a salt, the structure may show the parent alone.
quantity: pEC50

molecule: CN[C@@H]1CCN(CC(c2ccc(OCc3ccccc3)c(Cl)c2)C2(O)CCCCC2)C1 (some centres unmarked) [Example 385, dihydrochloride]
quantity: pEC50
assayValue: 6.57
//
molecule: COc1ccc(C(CN2CCC(N3CCCC3)CC2)C2(O)CCCCC2)cc1Br (centres unmarked) [Example 9, dihydrochloride]
quantity: pEC50
assayValue: 6.74
//
molecule: OC1(C(CN2CCC(N3CCCCC3)CC2)c2ccc3ccccc3c2)CCCCC1 (centres unmarked) [Example 22, dihydrochloride]
quantity: pEC50
assayValue: 6.80
//
molecule: NC1CCN(CC(c2ccc(OCc3ccccc3)c(Cl)c2)C2(O)CCCCC2)CC1 (centres unmarked) [Example 428, dihydrochloride]
quantity: pEC50
assayValue: 6.96
//
molecule: CN(C)C1CCN(CC(c2cccc(Cl)c2)C2(O)CCCCC2)CC1 (centres unmarked) [Example 36, dihydrochloride]
quantity: pEC50
assayValue: 6.89
//
molecule: NC1CCN(CC(c2ccc3ccccc3c2)C2(O)CCCCC2)CC1 (centres unmarked) [Example 32, dihydrochloride]
quantity: pEC50
assayValue: 6.77
//
molecule: CNC1CCN(CC(c2ccc(OC)c(Br)c2)C2(O)CCCCC2)CC1 (centres unmarked) [Example 29, dihydrochloride]
quantity: pEC50
assayValue: 6.82
//
molecule: COc1ccc2cc(C(CN3CCC(N)CC3)C3(O)CCCCC3)ccc2c1 (centres unmarked) [Example 342, dihydrochloride]
quantity: pEC50
assayValue: 6.41
//
molecule: N[C@H]1CCN(C[C@@H](c2cccc(Cl)c2)C2(O)CCCCC2)C1 [Example 388, dihydrochloride]
quantity: pEC50
assayValue: 7.07
//
molecule: NC1CCN(CC(c2ccc(Cl)c(Cl)c2)C2(O)CCCCC2)CC1 (centres unmarked) [Example 14, dihydrochloride]
quantity: pEC50
assayValue: 7.05
//
molecule: N[C@H]1CCN(C[C@H](c2cccc(Cl)c2)C2(O)CCCCC2)C1 [Example 387, dihydrochloride]
quantity: pEC50
assayValue: 6.39
//
molecule: COc1ccc2cc(C(CN3CCC(N4CCCCC4)CC3)C3(O)CCCCC3)ccc2c1 (centres unmarked) [Example 346, dihydrochloride]
quantity: pEC50
assayValue: 6.72
//
molecule: CN(C)[C@@H]1CCN(CC(c2ccc(OCc3ccccc3)c(Cl)c2)C2(O)CCCCC2)C1 (some centres unmarked) [Example 384, dihydrochloride]
quantity: pEC50
assayValue: 6.35
//
molecule: N[C@H]1CCN(CC(c2cccc(Cl)c2)C2(O)CCCCC2)C1 (some centres unmarked) [Example 16, dihydrochloride]
quantity: pEC50
assayValue: 6.92
//
molecule: OC1([C@H](CN2CCC(N3CCCCC3)CC2)c2cccc(OC(F)(F)F)c2)CCCCC1 [Example 366, dihydrochloride]
quantity: pEC50
assayValue: 6.96
//
molecule: CN(C)C1CCN(C[C@H](c2cccc(OC(F)(F)F)c2)C2(O)CCCCC2)CC1 [Example 360, dihydrochloride]
quantity: pEC50
assayValue: 6.66
//
molecule: CNC1CCN(C[C@H](c2cccc(Cl)c2)C2CCCCC2)CC1 (single isomer, unassigned) [Example 355, dihydrochloride]
quantity: pEC50
assayValue: 6.14
//
molecule: OC1(C(CN2CCC(N3CCCC3)CC2)c2ccc3ccccc3c2)CCCCC1 (centres unmarked) [Example 31, dihydrochloride]
quantity: pEC50
assayValue: 7.30
//
molecule: COc1ccc2cc(C(CN3CCC(N4CCCC4)CC3)C3(O)CCCCC3)ccc2c1 (centres unmarked) [Example 345, dihydrochloride]
quantity: pEC50
assayValue: 6.28
//
molecule: OC1(C(CN2CCC(N3CCCC3)CC2)c2cccc(Cl)c2)CCCCC1 (centres unmarked) [Example 3, dihydrochloride]
quantity: pEC50
assayValue: 7.28
//
molecule: CNC1CCN(CC(c2cccc(Br)c2)C2(O)CCCCC2)CC1 (centres unmarked) [Example 19, dihydrochloride]
quantity: pEC50
assayValue: 7.06
//
molecule: OC1(C(CN2CCC(N3CCCCC3)CC2)c2cccc(Br)c2)CCCCC1 (centres unmarked) [Example 4, dihydrochloride]
quantity: pEC50
assayValue: 6.80
//
molecule: CNC1CCN(CC(c2cccc(Cl)c2)C2(O)CCCCC2)CC1 (centres unmarked) [Example 17, dihydrochloride]
quantity: pEC50
assayValue: 7.04

The origin of these recorded values is patent US7550485B2.
